Test system: OVCAR-4 ovarian
Assay: NCI tumour cell line growth inhibition, 48 h; in the data active = GI50 below about 0.43 µM; inactive = the rest
Labels: label 1 = active, label 0 = inactive

# compound, classAssignment
records = [
    ("O=C1C2=C(C(=O)c3cnccc31)C1C=CC2CC1 (centres undefined)", "label 1"),
    ("Oc1c(Cl)cc(Cl)c2ccc(Cn3cc(-c4cc(C(F)(F)F)cc(C(F)(F)F)c4)nn3)nc12", "label 0"),
    ("CN(C)c1ccc(/C=C2\\N=C(c3ccccc3)N(c3cc(C(F)(F)F)ccc3Cl)C2=O)cc1", "label 0"),
    ("CCN1CCN(c2cc(C)nc(N(CCCNc3ccnc4cc(Cl)ccc34)Cc3ccc4c(c3)OCO4)n2)CC1", "label 0"),
    ("O=c1c2cc(-c3ccccc3)sc2ncn1Cc1ccc(Cl)c(Cl)c1", "label 0"),
    ("C#CCNC(=S)N/N=C(\\C)c1ccccn1", "label 1"),
    ("O=S1(=O)N(Cc2ccccc2)[C@@H](Cc2ccccc2)[C@H](O)[C@H](O)[C@H](Cc2ccccc2)N1Cc1ccccc1", "label 0"),
    ("Cc1ncc(C(=O)Nc2ccc(CN3CCN(C)CC3)c(C(F)(F)F)c2)cc1C#Cc1ccc(N)nc1", "label 1"),
    ("CCCCCCCC(=O)OCCCC1[C@]2(C)CC[C@@]3(C)C([C@H](C)CCC=C(C)C)CC[C@]3(C)C2CC[C@]12OC2(C)C (some centres undefined)", "label 0"),
]
